Consider the following molecules; for each one, report its viability, T/C.
- Tested on: 186277-243-T-J2-PDC complex spheroid growth
- ASSAY NAME: Anticancer human tumor 186277-243-T-J2-PDC patient-derived colon adenocarcinoma cell line growth inhibition [AhR]
- SETUP CONDITIONS: second compound 0.316 µM; first compound 0.00949 µM; stronger effect = lower value
Give the quantity in %, number only.

Inquiry: Could you tell me which viability, T/C is on file for CCN(c1cc(-c2ccc(CN3CCOCC3)cc2)cc(C(=O)NCc2c(C)cc(C)[nH]c2=O)c1C)C1CCOCC1 + CC(CO)NC(=O)c1cc(-c2ccc(Cl)cc2)nn(-c2cnn(C)c2)c1=O ?
Reply text: 109

Inquiry: Could you tell me which viability, T/C is on file for CCc1c2c(nc3ccc(O)cc13)-c1cc3c(c(=O)n1C2)COC(=O)[C@]3(O)CC + Cc1ccccc1N=Nc1ccc(NC(=O)c2ccnn2C)c(C)c1 ?
Reply text: 123

Inquiry: Could you tell me which viability, T/C is on file for Nc1ncn(C2CC(O)C(CO)S2)c(=O)n1 (centres undefined) + Cc1ccccc1N=Nc1ccc(NC(=O)c2ccnn2C)c(C)c1 ?
Reply text: 105

Inquiry: Could you tell me which viability, T/C is on file for CC(C)CC(NC(=O)C(Cc1ccccc1)NC(=O)c1cnccn1)B(O)O (centres undefined) + CC(CO)NC(=O)c1cc(-c2ccc(Cl)cc2)nn(-c2cnn(C)c2)c1=O ?
Reply text: 3.12

Inquiry: Could you tell me which viability, T/C is on file for CC(C)CC(NC(=O)C(Cc1ccccc1)NC(=O)c1cnccn1)B(O)O (centres undefined) + Cc1ccccc1N=Nc1ccc(NC(=O)c2ccnn2C)c(C)c1 ?
Reply text: 97.3

Inquiry: Could you tell me which viability, T/C is on file for CCN(c1cc(-c2ccc(CN3CCOCC3)cc2)cc(C(=O)NCc2c(C)cc(C)[nH]c2=O)c1C)C1CCOCC1 + Cc1ccccc1N=Nc1ccc(NC(=O)c2ccnn2C)c(C)c1 ?
Reply text: 95.7

Inquiry: Could you tell me which viability, T/C is on file for CCc1c2c(nc3ccc(O)cc13)-c1cc3c(c(=O)n1C2)COC(=O)[C@]3(O)CC + Cc1cncc(-c2nc(NCCc3c[nH]c4ccccc34)c3ncn(C(C)C)c3n2)c1 ?
Reply text: 70.9

Inquiry: Could you tell me which viability, T/C is on file for CC(C)CC(NC(=O)C(Cc1ccccc1)NC(=O)c1cnccn1)B(O)O (centres undefined) + Cc1cncc(-c2nc(NCCc3c[nH]c4ccccc34)c3ncn(C(C)C)c3n2)c1 ?
Reply text: 89.1

Inquiry: Could you tell me which viability, T/C is on file for Nc1ncn(C2CC(O)C(CO)S2)c(=O)n1 (centres undefined) + Cc1cncc(-c2nc(NCCc3c[nH]c4ccccc34)c3ncn(C(C)C)c3n2)c1 ?
Reply text: 104

====

- Test system: 186277-243-T-J2-PDC complex spheroid growth
- ASSAY NAME: Anticancer human tumor 186277-243-T-J2-PDC cell line growth inhibition [AhR];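 further: spheroids exposed to compounds for seven days before the viability read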;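 on viability, T/C: luminescent signal used as a stand-in for viable cell amount; 100% = DMSO vehicle control wells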
- SETUP CONDITIONS: second compound 0.1 µM; first compound 1 µM; stronger effect = lower value
ATTRIBUTE MEASURED: viability, T/C (%)
Give the quantity in %, number only.

Inquiry: Could you tell me which viability, T/C is on file for CC1COCCN1c1cc(C2(S(C)(=N)=O)CC2)nc(-c2ccnc3[nH]ccc23)n1 (configuration not stated) + Cc1cncc(-c2nc(NCCc3c[nH]c4ccccc34)c3ncn(C(C)C)c3n2)c1 ?
Reply text: 99.5

Inquiry: Could you tell me which viability, T/C is on file for O=C(C=Cc1cccc(S(=O)(=O)Nc2ccccc2)c1)NO + Cc1ccccc1N=Nc1ccc(NC(=O)c2ccnn2C)c(C)c1 ?
Reply text: 88.8

Inquiry: Could you tell me which viability, T/C is on file for CC(C)c1c(-c2ccccc2)nc2c(C#N)c[nH]n2c1=O + Cc1cncc(-c2nc(NCCc3c[nH]c4ccccc34)c3ncn(C(C)C)c3n2)c1 ?
Reply text: 98.3

Inquiry: Could you tell me which viability, T/C is on file for COc1cc(Nc2ncc3c(n2)-c2ccc(Cl)cc2C(c2c(F)cccc2OC)=NC3)ccc1C(=O)O + Cc1ccccc1N=Nc1ccc(NC(=O)c2ccnn2C)c(C)c1 ?
Reply text: 107

Inquiry: Could you tell me which viability, T/C is on file for O=C(C=Cc1cccc(S(=O)(=O)Nc2ccccc2)c1)NO + CC(CO)NC(=O)c1cc(-c2ccc(Cl)cc2)nn(-c2cnn(C)c2)c1=O ?
Reply text: 9.56

Inquiry: Could you tell me which viability, T/C is on file for O=C(c1cc(Cc2n[nH]c(=O)c3ccccc23)ccc1F)N1CCN(C(=O)C2CC2)CC1 + Cc1ccccc1N=Nc1ccc(NC(=O)c2ccnn2C)c(C)c1 ?
Reply text: 101

Inquiry: Could you tell me which viability, T/C is on file for CC1COCCN1c1cc(-c2ccnn2C)c2ccnc(-c3ccn[nH]3)c2n1 (configuration not stated) + Cc1ccccc1N=Nc1ccc(NC(=O)c2ccnn2C)c(C)c1 ?
Reply text: 8.07

Inquiry: Could you tell me which viability, T/C is on file for CC1(C)CCC(CN2CCN(c3ccc(C(=O)NS(=O)(=O)c4ccc(NCC5CCOCC5)c([N+](=O)[O-])c4)c(Oc4cnc5[nH]ccc5c4)c3)CC2)=C(c2ccc(Cl)cc2)C1 + Cc1cncc(-c2nc(NCCc3c[nH]c4ccccc34)c3ncn(C(C)C)c3n2)c1 ?
Reply text: 91.4

Inquiry: Could you tell me which viability, T/C is on file for COc1ccc([C@@H](O)c2cc(-c3ncnc4cc(N5CCOCC5)ccc34)c(F)cc2Cl)nn1 + CC(CO)NC(=O)c1cc(-c2ccc(Cl)cc2)nn(-c2cnn(C)c2)c1=O ?
Reply text: 73.5

Inquiry: Could you tell me which viability, T/C is on file for CC(C)c1c(-c2ccccc2)nc2c(C#N)c[nH]n2c1=O + CC(CO)NC(=O)c1cc(-c2ccc(Cl)cc2)nn(-c2cnn(C)c2)c1=O ?
Reply text: 95.5

Inquiry: Could you tell me which viability, T/C is on file for Nc1ccccc1NC(=O)c1ccc(CNC(=O)OCc2cccnc2)cc1 + Cc1ccccc1N=Nc1ccc(NC(=O)c2ccnn2C)c(C)c1 ?
Reply text: 105

Inquiry: Could you tell me which viability, T/C is on file for Nc1ncn(C2CC(O)C(CO)O2)c(=O)n1 (configuration not stated) + Cc1ccccc1N=Nc1ccc(NC(=O)c2ccnn2C)c(C)c1 ?
Reply text: 143

====

Consider the following compounds; for each one, report its pIC50.
- Tested on: 186277-243-T-J2-PDC complex spheroid growth
- ASSAY NAME: Anticancer human tumor 186277-243-T-J2-PDC cell line growth inhibition [AhR];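 further: spheroids exposed to compounds for seven days before the viability read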
- SETUP CONDITIONS: curve of first compound; second compound 1 µM
pIC50: −log10 of the molar value.

Inquiry: Could you tell me which pIC50 is on file for Nc1ncn(C2CC(O)C(CO)O2)c(=O)n1 (stereo not drawn) + CC(CO)NC(=O)c1cc(-c2ccc(Cl)cc2)nn(-c2cnn(C)c2)c1=O ?
Reply text: < 6.00

Inquiry: Could you tell me which pIC50 is on file for NS(=O)(=O)OCC1CC(n2ccc3c(NC4CCc5ccccc54)ncnc32)CC1O (stereo not drawn) + Cc1cncc(-c2nc(NCCc3c[nH]c4ccccc34)c3ncn(C(C)C)c3n2)c1 ?
Reply text: 6.31

Inquiry: Could you tell me which pIC50 is on file for COc1cc(Nc2ncc3c(n2)-c2ccc(Cl)cc2C(c2c(F)cccc2OC)=NC3)ccc1C(=O)O + CC(CO)NC(=O)c1cc(-c2ccc(Cl)cc2)nn(-c2cnn(C)c2)c1=O ?
Reply text: > 7.50

====

Consider the following compounds; for each one, report its pIC50.
- Tested on: 186277-243-T-J2-PDC complex spheroid growth
- ASSAY NAME: Anticancer human tumor 186277-243-T-J2-PDC cell line growth inhibition [AhR];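 further: spheroids exposed to compounds for seven days before the viability read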
- SETUP CONDITIONS: curve of first compound; second compound 10 µM
In plain terms, pIC50 is the concentration in mol/L turned into minus its base-10 logarithm.

Inquiry: Could you tell me which pIC50 is on file for O=C(C=Cc1cccc(S(=O)(=O)Nc2ccccc2)c1)NO + CC(CO)NC(=O)c1cc(-c2ccc(Cl)cc2)nn(-c2cnn(C)c2)c1=O ?
Reply text: 6.79

Inquiry: Could you tell me which pIC50 is on file for CC[C@@]1(O)C(=O)OCc2c1cc1n(c2=O)Cc2cc3c(CN(C)C)c(O)ccc3nc2-1 + Cc1cncc(-c2nc(NCCc3c[nH]c4ccccc34)c3ncn(C(C)C)c3n2)c1 ?
Reply text: 8.88

====

- Tested on: 186277-243-T-J2-PDC complex spheroid growth
- ASSAY NAME: Anticancer human tumor 186277-243-T-J2-PDC cell line growth inhibition [AhR];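 further: spheroids exposed to compounds for seven days before the viability read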;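 on viability, T/C: luminescent signal used as a stand-in for viable cell amount; 100% = DMSO vehicle control wells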
- SETUP CONDITIONS: second compound 0.1 µM; first compound 3 µM; stronger effect = lower value
ATTRIBUTE MEASURED: viability, T/C (%)
Give the quantity in %, number only.

Inquiry: Could you tell me which viability, T/C is on file for O=C(C=Cn1cnc(-c2cc(C(F)(F)F)cc(C(F)(F)F)c2)n1)NNc1cnccn1 + CC(CO)NC(=O)c1cc(-c2ccc(Cl)cc2)nn(-c2cnn(C)c2)c1=O ?
Reply text: 1.33

Inquiry: Could you tell me which viability, T/C is on file for O=C(C=Cn1cnc(-c2cc(C(F)(F)F)cc(C(F)(F)F)c2)n1)NNc1cnccn1 + Cc1cncc(-c2nc(NCCc3c[nH]c4ccccc34)c3ncn(C(C)C)c3n2)c1 ?
Reply text: 4.12

Inquiry: Could you tell me which viability, T/C is on file for CCN(c1cc(-c2ccc(CN3CCOCC3)cc2)cc(C(=O)NCc2c(C)cc(C)[nH]c2=O)c1C)C1CCOCC1 + CC(CO)NC(=O)c1cc(-c2ccc(Cl)cc2)nn(-c2cnn(C)c2)c1=O ?
Reply text: 85.1

Inquiry: Could you tell me which viability, T/C is on file for CCN(c1cc(-c2ccc(CN3CCOCC3)cc2)cc(C(=O)NCc2c(C)cc(C)[nH]c2=O)c1C)C1CCOCC1 + Cc1ccccc1N=Nc1ccc(NC(=O)c2ccnn2C)c(C)c1 ?
Reply text: 102

Inquiry: Could you tell me which viability, T/C is on file for O=C(C=Cn1cnc(-c2cc(C(F)(F)F)cc(C(F)(F)F)c2)n1)NNc1cnccn1 + Cc1ccccc1N=Nc1ccc(NC(=O)c2ccnn2C)c(C)c1 ?
Reply text: 8.98

Inquiry: Could you tell me which viability, T/C is on file for CCN(c1cc(-c2ccc(CN3CCOCC3)cc2)cc(C(=O)NCc2c(C)cc(C)[nH]c2=O)c1C)C1CCOCC1 + Cc1cncc(-c2nc(NCCc3c[nH]c4ccccc34)c3ncn(C(C)C)c3n2)c1 ?
Reply text: 98.5
